Assay: Liver-blood ratio, tissue distribution in rats
Type: in vivo, SD rats
Conditions: SD, rat, plasma, 1 mg/kg, PO 1 mpk, 2.0 h, read-out: Plasma concentration
Value kind: concentration at 2 h (µM)
Answers are plain numbers, in µM.

In the examples that follow, each entry is paired with its recorded concentration at 2 h.
>>> print(df.to_string())
                              smiles_record  numeric_readout
0  C[C@H]1CCN1c1nc(Nc2ccc(CC(=O)O)cc2)c2ccsc2n1              3.1
1  C[C@H]1CCN1c1nc(N2C[C@@H]3[C@@H](CC(=O)O)[C@@H]3C2)c2ccsc2n1             7.75
2  C[C@H]1CCN1c1nc(Nc2ccc(C(=O)O)cc2)c2ccsc2n1            0.273

Please look at the following molecule next.
Look up concentration at 2 h for this molecule: C[C@H]1CCN1c1nc(N2C[C@@H]3[C@@H](CC(=O)O)[C@@H]3C2)c2ncsc2n1
9.09

###

Provide the recorded half-life for the entries that follow.
Assay: Pharmacokinetic evaluation in SD rats
Assay type: in vivo
Conditions: rat, plasma, IV 1 mpk and PO 3 mpk study, read-out: Half-life T1/2 (converted)
One number for each entry, in h.

For each entry beneath this line, provide reported half-life.
1. C[C@H]1CCN1c1nc(N2CC3(C[C@H]3C(=O)O)C2)c2c(n1)C(F)(F)CC2
2. C[C@H]1CCN1c1nc(N2C[C@@H]3[C@@H](CC(=O)O)[C@@H]3C2)c2ncsc2n1

[5.83, 3.12]

For each entry beneath this line, provide reported half-life.
1. C[C@H]1CCN1c1nc(N2C[C@@H]3[C@@H](CC(=O)O)[C@@H]3C2)c2ccsc2n1
2. C[C@H]1CCN1c1nc(N2CC3(C[C@@H]3C(=O)O)C2)c2c(n1)C(F)(F)CC2
3. C[C@H]1CCN1c1nc(Nc2ccc(CC(=O)O)cc2)c2ccsc2n1

1: 2.96; 2: 2.27; 3: 2.63

###

Test: Liver-blood ratio, tissue distribution in rats
Assay type: in vivo, SD rats
Conditions: SD, rat, brain, 1 mg/kg, PO 1 mpk, 6.0 h, read-out: Brain tissue concentration
Provide the recorded concentration at 6 h for the entries that follow.
Give bare numbers, in nM.

In [3]: df
Out[3]:
                              smiles_record  numeric_readout
0  C[C@H]1CCN1c1nc(N2C[C@@H]3[C@@H](CC(=O)O)[C@@H]3C2)c2ccsc2n1               71

Please look at the following compound next.
Look up concentration at 6 h for this compound: C[C@H]1CCN1c1nc(N2C[C@@H]3[C@@H](CC(=O)O)[C@@H]3C2)c2ncsc2n1
91.5

###

Test: Liver-blood ratio, tissue distribution in rats
Format: in vivo, SD rats
Conditions: SD, rat, brain, 1 mg/kg, PO 1 mpk, 1.5 h, read-out: Brain tissue concentration
Experimental: Tissue distribution of compounds in SD rats was tested. In the experiment, candidate compounds were formulated as clear solutions and administered to rats in a single oral dose (PO, 1 mpk). The vehicle for oral administration was a certain proportion of methylcellulose and Tween 80 in water. […] Drug concentration was analyzed by LC-MS/MS, and pharmacokinetic parameters were calculated by Phoenix WinNonlin software.
Provide the recorded concentration at 1.5 h for the entries that follow.
One number for each entry, in nM.

In [3]: df
Out[3]:
                              smiles_record              value_kind  numeric_readout
0  C[C@H]1CCN1c1nc(N2C[C@@H]3[C@@H](CC(=O)O)[C@@H]3C2)c2ncsc2n1  concentration at 1.5 h             72.8

Please look at the following compound next.
Look up concentration at 1.5 h for this compound: C[C@H]1CCN1c1nc(N2C[C@@H]3[C@@H](CC(=O)O)[C@@H]3C2)c2ccsc2n1
105
